Assay remarks: folding enthalpy; higher = less favourable; fluorescence melt of hairpins on a sequencing array, two-state fit
Condition info: sodium 0.088 M
Okay, here is how we bin by folding enthalpy: low range = under -30 kcal/mol, mid range = from -30 kcal/mol up to -20 kcal/mol, high range = -20 kcal/mol and over

Task: Sort into band: GATAACGAAAGTTATC ((((((....))))))
Result: low range

Task: Sort into band: GTACTCGAAAGAGCGTAC ((((((....)))..)))
Result: high range

Task: Sort into band: GCGAGTGGAAACATTCGC ((((.((....)).))))
Result: low range

Task: Sort into band: GTCATCGGAAACGATGAC (((((((....)))))))
Result: low range

Task: Sort into band: GTTAGACGAAAGTCGAAC (((.(((....))).)))
Result: mid range

Task: Sort into band: GGCAGCGAAAGCTTGCC ((((((....))).)))
Result: mid range

Task: Sort into band: GCGCCAGGAAACTAGCGC ((((.((....)).))))
Result: low range

Task: Sort into band: GGCCAAGGAAACCTAGCC (((.(.(....).).)))
Result: mid range

Task: Sort into band: GCACCCGAAAGGGCTGC ((((((....))).)))
Result: low range

Task: Sort into band: GCAGTCGAAAGACTTTGC ((((((....)))..)))
Result: high range
